biological target: Fatty-acid amide hydrolase 1 (Rattus norvegicus, UniProt P97612); experiment: Inhibition of rat recombinant His/GST-tagged FAAH expressed in Escherichia coli cells using AAMCA as substrate incubated for 15 mins followed by substrate addition and measured after every 20 mins for 4 hrs by fluorescence based assay
Sequence (P97612 whole entry): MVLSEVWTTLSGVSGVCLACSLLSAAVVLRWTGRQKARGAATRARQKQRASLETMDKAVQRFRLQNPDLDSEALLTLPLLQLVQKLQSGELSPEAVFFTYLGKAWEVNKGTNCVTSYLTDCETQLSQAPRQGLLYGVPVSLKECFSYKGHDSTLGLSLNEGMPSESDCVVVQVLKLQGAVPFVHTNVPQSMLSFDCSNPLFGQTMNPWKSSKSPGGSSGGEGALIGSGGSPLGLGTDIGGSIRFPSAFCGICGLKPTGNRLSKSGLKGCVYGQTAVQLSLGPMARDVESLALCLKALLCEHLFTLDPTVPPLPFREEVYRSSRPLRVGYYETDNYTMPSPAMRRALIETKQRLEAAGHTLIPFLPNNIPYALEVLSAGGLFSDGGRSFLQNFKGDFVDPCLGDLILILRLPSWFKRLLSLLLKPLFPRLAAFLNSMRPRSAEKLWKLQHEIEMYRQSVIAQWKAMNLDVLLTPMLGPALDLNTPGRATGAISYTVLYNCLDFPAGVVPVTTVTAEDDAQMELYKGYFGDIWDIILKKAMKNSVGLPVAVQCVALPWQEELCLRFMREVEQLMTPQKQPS
MEASURE_NAME: IC50 (nM)

N#Cc1ccc(C2CCN(C(=O)Oc3cccc(N4CCS(=O)(=O)CC4)c3)CC2)cc1 :: 9.9
C[C@@H]1CN(c2ccc(F)cc2)CCN1C(=O)Oc1cccc(N2CCS(=O)(=O)CC2)c1 :: 6.3
CN1CCN(c2cccc(OC(=O)N3CCC(c4ccc(F)cc4)CC3)c2)CC1 :: 9.4
O=C(Oc1cccc(N2CCS(=O)(=O)CC2)c1)N1C[C@H]2C[C@@H]1CN2c1ccc(F)cc1 :: 17.1
O=C(Oc1cccc(N2CCS(=O)(=O)CC2)c1)N1CCN(c2ccc(F)cc2)CC1 :: 12.5
